- Measurement target: Trace amine-associated receptor 1 (Homo sapiens, UniProt Q96RJ0)
- Sequence (Q96RJ0 whole entry): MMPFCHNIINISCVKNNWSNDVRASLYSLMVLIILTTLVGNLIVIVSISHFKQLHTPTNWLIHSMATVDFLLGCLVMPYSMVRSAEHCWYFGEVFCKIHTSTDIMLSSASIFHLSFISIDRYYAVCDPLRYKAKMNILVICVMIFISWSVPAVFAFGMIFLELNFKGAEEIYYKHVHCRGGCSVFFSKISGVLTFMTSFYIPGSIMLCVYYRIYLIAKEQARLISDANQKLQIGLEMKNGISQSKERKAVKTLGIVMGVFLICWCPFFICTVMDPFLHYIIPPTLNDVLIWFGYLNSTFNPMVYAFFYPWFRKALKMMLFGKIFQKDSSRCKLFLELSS
- Experiment summary: Fluorescence-based cell-based high throughput dose response assay to identify agonists of the human trace amine associated receptor 1 (TAAR1).
- Format: functional
Activity calls are given as the source filed them.
Endpoint: EC50

Reference set (4 entries):
Molecule	EC50
NC(Cc1ccc(F)cc1)c1csc(Nc2ccc(S(N)(=O)=O)cc2)n1 (configuration not stated)	5.18 µM (active)
CCCn1c(O)c(C#N)c(C)c(CN2CCCC(C)C2)c1=O (configuration not stated)	3.04 µM (active)
Cc1nc(NCCc2ccccc2)c2nnn(Cc3ccccc3Cl)c2n1	0.59 µM (active)
Cc1cccc(NC2=NCC(=O)N2CCc2ccccc2)c1	0.866 µM (active)

Indicate the recorded EC50 value for this molecule: O=C(NCCc1ccccc1)c1ccc(CS(=O)(=O)Cc2ccccc2F)o1
2.78 µM (active)

Indicate the recorded EC50 value for this molecule: CCOc1cc2c(C#N)c(N3CCNCC3)nc(N)c2c(N)n1
5.69 µM (active)

Indicate the recorded EC50 value for this molecule: Cc1cccc(-c2cc3nc(C)cc(N4CC(C)CC(C)C4)n3n2)c1 (configuration not stated)
7.1 µM (active)

----------
- Experiment summary: alpha-synuclein stem-loop luciferase translation blockers – H4 neuroglioma cells, luminescence, confirmation (AID 1988)
- Format: functional, cell-based
Calls of active or inactive are those of the source.
Endpoint: EC50

Reference set (3 entries):
Molecule	Endpoint	Test result
COc1ccc(C)cc1NC(=O)CNC(c1ccccc1)c1ccc(C)cc1 (centres undefined)	EC50	0.205 µM (active)
Cc1nc(O)nc(O)c1/C=C/C(=O)OCC(C)C	EC50	15.5 µM (active)
COc1cccc(N2CCN(C(=O)c3ccc(C[S+]([O-])c4ccc(Cl)cc4)o3)CC2)c1 (centres undefined)	EC50	0.67 µM (active)

--- query ---
Indicate the recorded EC50 value for this molecule: c1cc2c(cc1C1CCCCC1)c1c3n2CCCNC3CCC1 (centres undefined)
18 µM (active)

----------
Parameter AC50, tested on Cytochrome P450 1A2 (Homo sapiens), listed per item.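 Further: PubChem cytochrome P450 panel assay, CYP1A2 panel member.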
Sequence (P05177 whole entry): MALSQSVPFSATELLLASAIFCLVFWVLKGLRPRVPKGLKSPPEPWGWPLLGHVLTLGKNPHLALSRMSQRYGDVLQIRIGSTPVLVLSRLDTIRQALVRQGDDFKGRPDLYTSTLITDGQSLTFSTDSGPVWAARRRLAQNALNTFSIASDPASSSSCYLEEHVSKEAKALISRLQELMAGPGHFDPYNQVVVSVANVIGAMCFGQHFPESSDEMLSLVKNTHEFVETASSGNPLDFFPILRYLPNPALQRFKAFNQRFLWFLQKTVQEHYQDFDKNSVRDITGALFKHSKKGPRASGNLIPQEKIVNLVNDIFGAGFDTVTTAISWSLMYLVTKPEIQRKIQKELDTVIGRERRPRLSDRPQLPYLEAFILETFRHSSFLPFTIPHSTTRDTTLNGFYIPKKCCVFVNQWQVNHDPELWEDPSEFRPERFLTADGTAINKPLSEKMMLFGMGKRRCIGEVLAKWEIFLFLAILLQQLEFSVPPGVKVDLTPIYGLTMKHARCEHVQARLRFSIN

Reference set (5 entries):
Compound	AC50
COC(=O)C1=C(C)NC(C)=C(C(=O)OC(C)C)[C@H]1c1cccc2nonc12 [(S)-ISRADIPINE]	12.6 µM (inconclusive)
Cc1ccc(C)c(Cn2cnc3c(cnn3C(C)(C)C)c2=O)c1	10 µM (inconclusive)
COCCN1CN=C(Nc2nc3ccccc3o2)NC1	22.4 µM (inconclusive)
CC(C)(C)c1ccc(C2CC2C(=O)N/N=C\c2cc3ccccc3nc2Cl)cc1 (configuration not stated)	28.2 µM (inconclusive)
COC(=O)[C@@]1(Cc2ccc(OC)cc2)[C@H]2c3cc(C(=O)N4CCCC4)n(CCN4CNCC4=O)c3C[C@H]2CN1C(=O)c1ccccc1	31.6 µM (inconclusive)

State AC50 (Cytochrome P450 1A2 (Homo sapiens)) of CC(C)CN1CC[C@@]2(CCCN(C(=O)Oc3ccccc3)C2)C1 .
15.8 µM (inconclusive)

State AC50 (Cytochrome P450 1A2 (Homo sapiens)) of Cc1ccccc1C(=O)c1cccn1CC(=O)NCc1ccco1 .
10 µM (inconclusive)

State AC50 (Cytochrome P450 1A2 (Homo sapiens)) of [O-]c1c[n+](CC[n+]2cc([O-])on2)no1 .
2.51 µM (inconclusive)

State AC50 (Cytochrome P450 1A2 (Homo sapiens)) of Oc1nc2cc(Cl)ccc2c(O)c1-c1ccc(Oc2ccccc2)cc1 .
10 µM (inconclusive)

State AC50 (Cytochrome P450 1A2 (Homo sapiens)) of CC(C)c1ccc(C2C(C#N)=C(N)N3C(=C2C#N)Sc2ccccc23)cc1 (configuration not stated) .
25.1 µM (inconclusive)

----------
- Measurement target: Replicative DNA helicase DnaB (Mycobacterium tuberculosis, UniProt P9WMR3)
- Experiment summary: DnaB intein splicing inhibitors, dose response, biochemical, cell-free fluorescence (AID 449749)
- Type: functional
The source made the active and inactive calls.
Assign a class; possible classes are active, inactive

Below, 6 molecules whose answers are already recorded.
Molecule	Classification
O=C(O)CC1S/C(=N/N=C/c2ccc(-c3ccccc3[N+](=O)[O-])o2)NC1=O (configuration not stated)	active
O=C(CSc1nc2ccccc2nc1SCC(=O)N1CCOCC1)N1CCOCC1	active
COc1ccc2nc3cccc(OC)c3nc2c1	inactive
Cc1cc(C)nc(N2N=C(C(C)(C)C)CC2=O)n1	active
CCOC(=O)C1CCN(S(=O)(=O)c2c(Cl)ccc3nonc23)CC1	active
CCCn1nc([N+](=O)[O-])c(C(C#N)c2nc3ccccc3s2)c(Cl)c1=O (configuration not stated)	active

Outcome? CCCCNC1C(CC)C(CCC)C(C#N)(C#N)C1(C#N)C#N (configuration not stated)
inactive

Outcome? CCC(=O)OCCNc1cc(SCCC(=O)OC)c2nonc2c1[N+](=O)[O-]
active

Outcome? O=[N+]([O-])c1cccc(/C=N/c2cccc3ccccc23)c1O
active

Outcome? Cc1c([N+](=O)[O-])cnc(Sc2ccccc2)c1[N+](=O)[O-]
active

Outcome? COc1ccc(/C=C2\SC(=S)N(CCCC(=O)Nc3ccc(O)cc3)C2=O)cc1
inactive

Outcome? Cc1cccc(CSc2nc3c(c(-c4cccs4)c2C#N)CN(C)CC3)c1
active

----------
- Measurement target: Zinc finger protein mex-5 (Caenorhabditis elegans, UniProt Q9XUB2)
- Sequence (Q9XUB2 whole entry): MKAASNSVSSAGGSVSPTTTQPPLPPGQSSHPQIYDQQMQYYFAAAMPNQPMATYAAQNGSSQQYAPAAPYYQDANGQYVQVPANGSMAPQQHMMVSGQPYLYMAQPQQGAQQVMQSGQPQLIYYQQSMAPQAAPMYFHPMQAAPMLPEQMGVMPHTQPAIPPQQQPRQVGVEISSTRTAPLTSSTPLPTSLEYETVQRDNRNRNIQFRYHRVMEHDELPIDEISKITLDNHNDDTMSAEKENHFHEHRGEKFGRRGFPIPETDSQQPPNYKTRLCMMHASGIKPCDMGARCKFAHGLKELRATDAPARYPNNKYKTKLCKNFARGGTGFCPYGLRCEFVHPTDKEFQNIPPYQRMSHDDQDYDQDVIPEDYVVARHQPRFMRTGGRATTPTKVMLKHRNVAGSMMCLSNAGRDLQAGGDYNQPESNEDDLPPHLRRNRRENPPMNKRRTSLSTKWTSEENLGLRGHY
- Experiment summary: potency of MEX-5 RNA-binding blockers – biochemical, C. elegans, fluorescence polarization, dose response (AID 1960)
Activity calls are given as the source filed them.
Endpoint: EC50

Reference set (5 entries):
Compound	EC50
Cc1ccc(-c2ccccc2)n1-c1cccc(C(=O)O)c1	> 300 µM (not active)
Oc1ccc(-c2cnns2)c(O)c1	10.4 µM (active)
CCCn1c(O)c(C#N)c(C)c(CN2CCCC(C)C2)c1=O (stereo unspecified)	6.59 µM (active)
CN(C)CCCN(C(=O)/C=C/c1cccs1)c1nc2ccc(F)cc2s1	> 300 µM (not active)
COc1ccc(CNC(=O)COC(=O)c2cc(-c3ccc(Cl)s3)nc3ccccc23)cc1	58.6 µM (active)

--- query ---
Indicate the recorded EC50 value for this compound: COc1cc(C2C(C#N)=C(N)OC3=C2C(=O)CCC3)ccc1OC(=O)N1CCOCC1 (stereo unspecified)
> 300 µM (not active)

----------
We begin with a simple list: items and their reported EC50.
- Measurement target: Heat shock factor protein 1 (Mus musculus)
- Sequence (P38532 whole entry): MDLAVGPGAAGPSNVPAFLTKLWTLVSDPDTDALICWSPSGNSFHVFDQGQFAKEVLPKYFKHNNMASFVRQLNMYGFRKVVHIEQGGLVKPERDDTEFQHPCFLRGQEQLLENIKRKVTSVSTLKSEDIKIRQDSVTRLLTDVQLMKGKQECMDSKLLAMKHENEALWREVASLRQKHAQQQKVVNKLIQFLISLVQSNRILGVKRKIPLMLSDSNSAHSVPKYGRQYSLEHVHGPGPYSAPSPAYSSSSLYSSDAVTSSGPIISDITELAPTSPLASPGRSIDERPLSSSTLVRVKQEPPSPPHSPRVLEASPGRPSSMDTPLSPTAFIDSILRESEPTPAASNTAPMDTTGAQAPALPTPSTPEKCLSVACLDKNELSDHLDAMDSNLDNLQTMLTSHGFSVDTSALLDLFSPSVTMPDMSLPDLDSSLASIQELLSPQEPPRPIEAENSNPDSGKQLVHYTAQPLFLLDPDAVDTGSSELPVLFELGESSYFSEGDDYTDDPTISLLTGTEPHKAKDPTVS
- Experiment summary: decrease of HSF1-responsive luciferase luminescence – cell-based, NIH3T3, dose retest, confirmation (AID 2382);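 further: NIH3T3 fibroblasts with HSF1-driven luciferase reporter stressed by proteasome inhibitor MG132; luminescence from HSF1-driven luciferase expression after 8 hours of MG132 stress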
- Type: functional
Activity calls are given as the source filed them.

Reference set (4 entries):
Compound	Endpoint	Test result
O=C1c2cccnc2Oc2ccc(Cl)cc2N1Cc1ccc(F)cc1	EC50	> 195 µM (not active)
Cc1ccc(CO/N=C/c2c(O)cc(C)oc2=O)cc1	EC50	> 195 µM (not active)
O=C(/C=C\Nc1ccc2c(c1)OCO2)c1ccccn1	EC50	4.62 µM (active)
CC(C)c1ccc(/C=N/Nc2ccc(C(=O)O)cc2)cc1	EC50	< 0.16 µM (active)

Indicate the recorded EC50 value for this compound: CC(CN1CCOCC1)OC(=O)C(c1ccccc1)c1ccccc1 (stereo unspecified)
> 195 µM (not active)

Indicate the recorded EC50 value for this compound: CCn1c(O)cc(=O)nc1SCC(=O)N1CCOCC1
> 195 µM (not active)

Indicate the recorded EC50 value for this compound: O=C(CC(=O)c1ccccc1[N+](=O)[O-])c1ccccc1
> 195 µM (not active)

Indicate the recorded EC50 value for this compound: COc1ccc(N(CC(=O)NCc2ccc(F)cc2)C(=O)Cn2nnc(-c3ccc(C)o3)n2)cc1OC
> 195 µM (not active)

Indicate the recorded EC50 value for this compound: COc1ccc(CC(=O)NCC2CCCN(Cc3ccccc3Cl)C2)cc1 (stereo unspecified)
> 195 µM (not active)

Indicate the recorded EC50 value for this compound: CC1CCCN(C(=O)C2CCN(S(=O)(=O)c3ccc4c(c3)CC(C)N4C(=O)C3CC3)CC2)C1 (stereo unspecified)
> 195 µM (not active)

----------
- Experiment summary: loss of viability in HepG2 cells – cell-based, CellTiter-Glo, cherry-picked, cytotoxicity control for Shn3 inhibitor project, dose response (AID 624134)
- Assay type: functional
The source made the active and inactive calls.
Assign a class; possible classes are true (1) = active, false (0) = inactive

Molecule	Classification
O=C(Nc1ccc(F)c(F)c1)c1ccc(F)c(S(=O)(=O)N2CCC3(CC2)OCCO3)c1	true (1)

Outcome? CC(C)c1nc(SCC(=O)Nc2cccc(C(F)(F)F)c2)c2c(=O)n(C)c(=O)n(C)c2n1
false (0)

Outcome? Cc1ccccc1OCC(O)CNC1CCC(NCC(O)COc2ccccc2C)CC1 (centres undefined)
true (1)

Outcome? Cc1ccc(S(=O)(=O)N2CCN(c3ncnc4ccccc34)CC2)cc1
true (1)

----------
- Measurement target: Sentrin-specific protease 8 (Homo sapiens);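 further: luminescence read-out of SENP8 inhibition, dose-response confirmation following an ultra-high-throughput screen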
- Sequence (Q96LD8 whole entry): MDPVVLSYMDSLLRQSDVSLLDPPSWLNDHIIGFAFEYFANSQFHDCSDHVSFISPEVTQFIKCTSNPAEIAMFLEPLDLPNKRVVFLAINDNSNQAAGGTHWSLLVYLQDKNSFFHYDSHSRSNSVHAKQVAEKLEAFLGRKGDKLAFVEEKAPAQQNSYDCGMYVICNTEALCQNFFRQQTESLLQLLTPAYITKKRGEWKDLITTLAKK
- Type: functional
Calls of active or inactive are those of the source.
Assign a class; possible classes are active, inactive

Below, 2 compounds whose answers are already recorded.
COc1cccc2sc(Nc3nc(-c4ccccn4)cs3)nc12 inactive
COc1ccc(NC(=O)c2ccc(-c3ccccc3Cl)o2)cc1 inactive

Outcome? Cc1cc2nc(-c3ccc(SCC(=O)Nc4ccc(S(=O)(=O)NC5CC5)cc4)nc3)[nH]c2cc1C
inactive

Outcome? O=C(Nc1ccccc1)N1CC=C(c2ccc(F)cc2)CC1
active

Outcome? O=C1NC(=O)/C(=C/c2ccc(-c3cccc([N+](=O)[O-])c3)o2)S1
active
